Measurement record for UniProt Q9Y5Z0; quantity recorded: Ki.
Sequence (Q9Y5Z0 63-473 limits assumed): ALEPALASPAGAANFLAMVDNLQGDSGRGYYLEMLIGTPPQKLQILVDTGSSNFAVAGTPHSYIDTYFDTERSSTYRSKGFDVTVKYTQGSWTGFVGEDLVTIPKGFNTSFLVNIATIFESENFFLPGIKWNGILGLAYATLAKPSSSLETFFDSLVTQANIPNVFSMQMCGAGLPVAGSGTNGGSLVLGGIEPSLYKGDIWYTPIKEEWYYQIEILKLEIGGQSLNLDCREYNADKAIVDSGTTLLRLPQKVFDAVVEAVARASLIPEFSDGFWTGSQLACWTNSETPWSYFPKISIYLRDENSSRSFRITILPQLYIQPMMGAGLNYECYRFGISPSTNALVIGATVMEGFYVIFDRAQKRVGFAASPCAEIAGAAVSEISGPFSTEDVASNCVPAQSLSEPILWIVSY
Value type: Ki

>>> measured("COc1ccc(C(=O)Nc2ccc(F)c([C@@]3(C)NC(=N)N(C)S(=O)(=O)[C@]34CCN(S(=O)(=O)C3CC3)C4)c2)nc1")
"140 nM"
>>> measured("CCS(=O)(=O)N1CC[C@@]2(C1)[C@@](C)(c1cc(NC(=O)c3ccc(OC)cn3)ccc1F)NC(=N)N(C)S2(=O)=O")
"6 nM"
>>> measured("COc1ccc(C(=O)Nc2ccc(F)c([C@@]3(C)NC(=N)N(C)S(=O)(=O)[C@@]34CCN(S(=O)(=O)CC3CCCO3)C4)c2)nc1 (some centres unmarked)")
"19 nM"
>>> measured("CCS(=O)(=O)N1CC[C@]2(C1)[C@@](C)(c1cc(NC(=O)c3ccc(OC)cn3)ccc1F)NC(=N)N(C)S2(=O)=O")
"157 nM"
>>> measured("COc1ccc(C(=O)Nc2ccc(F)c([C@@]3(C)NC(=N)N(C)S(=O)(=O)[C@@]34CCN(S(=O)(=O)c3cn(C)cn3)C4)c2)nc1")
"38 nM"
>>> measured("CN1C(=N)N[C@](C)(c2cc(NC(=O)c3ccc(F)cn3)ccc2F)[C@]2(CCN(S(=O)(=O)c3cn[nH]c3)C2)S1(=O)=O")
"11 nM"
>>> measured("CN1C(=N)N[C@](C)(c2cc(NC(=O)c3ccc(F)cn3)ccc2F)[C@@]2(CCN(Cc3ccncc3)C2)S1(=O)=O")
"61 nM"
>>> measured("COc1ccc(C(=O)Nc2ccc(F)c([C@@]3(C)NC(=N)N(C)S(=O)(=O)[C@]34CCN(S(C)(=O)=O)C4)c2)nc1")
"205 nM"
>>> measured("CN1C(=N)N[C@](C)(c2cc(NC(=O)c3ccc(F)cn3)ccc2F)[C@@]2(CCN(S(=O)(=O)c3cn(C)cn3)C2)S1(=O)=O")
"19 nM"
>>> measured("CN1C(=N)N[C@](C)(c2cc(NC(=O)c3ccc(F)cn3)ccc2F)C2(CCN(C(=O)CC3CC3)C2)S1(=O)=O (some centres unmarked)")
"5.2 nM"
>>> measured("COc1ccc(C(=O)Nc2ccc(F)c([C@@]3(C)NC(=N)N(C)S(=O)(=O)[C@]34CCN(Cc3cnco3)C4)c2)nc1")
"237 nM"
>>> measured("CN1C(=N)N[C@](C)(c2cc(NC(=O)c3ccc(F)cn3)ccc2F)C2(CCN(Cc3ccccc3)C2)S1(=O)=O (some centres unmarked)")
"4.5 nM"
>>> measured("CN1C(=N)N[C@](C)(c2cc(NC(=O)c3ccc(F)cn3)ccc2F)[C@]2(CCN(S(=O)(=O)CC(F)(F)F)C2)S1(=O)=O")
"4 nM"
>>> measured("CN1C(=N)N[C@](C)(c2cc(NC(=O)c3ccc(F)cn3)ccc2F)[C@@]2(CCN(S(=O)(=O)Cc3cccnc3)C2)S1(=O)=O")
"20 nM"
>>> measured("CN1C(=N)N[C@](C)(c2cc(NC(=O)c3ccc(F)cn3)ccc2F)[C@]2(CCN(S(=O)(=O)C3CCCC3)C2)S1(=O)=O")
"2 nM"
>>> measured("CN1C(=N)N[C@](C)(c2cc(NC(=O)c3ccc(F)cn3)ccc2F)C2(CCN(C(=O)C3CC3)C2)S1(=O)=O (some centres unmarked)")
"3.1 nM"
>>> measured("CC(C)CS(=O)(=O)N1CC[C@]2(C1)[C@@](C)(c1cc(NC(=O)c3ccc(F)cn3)ccc1F)NC(=N)N(C)S2(=O)=O")
"29 nM"

====

Measurement record for soluble human BACE1 catalytic domain (Homo sapiens, UniProt P56817); quantity recorded: pKi.
pKi: −log10 of the molar value.
Value type: pKi

>>> measured("CN1C(=N)N[C@](C)(c2cc(NC(=O)c3ccc(F)cn3)ccc2F)[C@@]2(CCN(Cc3ccccn3)C2)S1(=O)=O")
7.48
>>> measured("CN1C(=N)N[C@](C)(c2cc(NC(=O)c3ccc(F)cn3)ccc2F)[C@@]2(CCN(Cc3cccnc3)C2)S1(=O)=O")
7.27
>>> measured("COc1ccc(C(=O)Nc2ccc(F)c([C@@]3(C)NC(=N)N(C)S(=O)(=O)[C@]34CCN(S(=O)(=O)CC3CCCO3)C4)c2)nc1 (some centres unmarked)")
7.49
>>> measured("CN1C(=N)N[C@](C)(c2cc(NC(=O)c3ccc(F)cn3)ccc2F)[C@]2(CCN(S(=O)(=O)c3cn[nH]c3)C2)S1(=O)=O")
8.30
>>> measured("COc1ccc(C(=O)Nc2ccc(F)c([C@@]3(C)NC(=N)N(C)S(=O)(=O)[C@]34CCN(CC3CC3)C4)c2)nc1")
7.47
>>> measured("CCS(=O)(=O)N1CC[C@@]2(C1)[C@@](C)(c1cc(NC(=O)c3ccc(F)cn3)ccc1F)NC(=N)N(C)S2(=O)=O")
8.70
>>> measured("CC(=O)N1CCC2(C1)[C@@](C)(c1cc(NC(=O)c3ccc(F)cn3)ccc1F)NC(=N)N(C)S2(=O)=O (some centres unmarked)")
8.43
>>> measured("COc1ccc(C(=O)Nc2ccc(F)c([C@@]3(C)NC(=N)N(C)S(=O)(=O)[C@@]34CCN(S(=O)(=O)c3ccccc3)C4)c2)nc1")
8.52
>>> measured("CN1C(=N)N[C@](C)(c2cc(NC(=O)c3ccc(F)cn3)ccc2F)[C@@]2(CCN(S(=O)(=O)C3CCCC3)C2)S1(=O)=O")
7.39
>>> measured("COc1ccc(C(=O)Nc2ccc(F)c([C@@]3(C)NC(=N)N(C)S(=O)(=O)[C@]34CCN(Cc3cnn(C)c3)C4)c2)nc1")
7.27
>>> measured("COc1ccc(C(=O)Nc2ccc(F)c([C@@]3(C)NC(=N)N(C)S(=O)(=O)[C@]34CCN(S(=O)(=O)c3cn[nH]c3)C4)c2)nc1")
7.70
>>> measured("CN1C(=N)N[C@](C)(c2cc(NC(=O)c3ccc(F)cn3)ccc2F)[C@]2(CCN(S(=O)(=O)c3ccccc3)C2)S1(=O)=O")
8.70
>>> measured("COc1ccc(C(=O)Nc2ccc(F)c([C@@]3(C)NC(=N)N(C)S(=O)(=O)[C@]34CCN(S(=O)(=O)c3ccccc3)C4)c2)nc1")
7.92
>>> measured("CC(C)CS(=O)(=O)N1CC[C@]2(C1)[C@@](C)(c1cc(NC(=O)c3ccc(F)cn3)ccc1F)NC(=N)N(C)S2(=O)=O")
7.32
>>> measured("CN1C(=N)N[C@](C)(c2cc(NC(=O)c3ccc(F)cn3)ccc2F)[C@@]2(CCN(S(=O)(=O)Cc3cccnc3)C2)S1(=O)=O")
7.55
>>> measured("COc1ccc(C(=O)Nc2ccc(F)c([C@@]3(C)NC(=N)N(C)S(=O)(=O)[C@@]34CCN(S(=O)(=O)c3ccc(F)cc3)C4)c2)nc1")
8.52
>>> measured("COc1ccc(C(=O)Nc2ccc(F)c([C@@]3(C)NC(=N)N(C)S(=O)(=O)[C@]34CCN(S(=O)(=O)c3ccc(F)cc3)C4)c2)nc1")
7.62
>>> measured("COc1ccc(C(=O)Nc2ccc(F)c([C@@]3(C)NC(=N)N(C)S(=O)(=O)[C@]34CCN(S(=O)(=O)C3CC3)C4)c2)nc1")
7.40
>>> measured("CN1C(=N)N[C@](C)(c2cc(NC(=O)c3ccc(F)cn3)ccc2F)[C@]2(CCN(S(=O)(=O)C3CCCC3)C2)S1(=O)=O")
8.70
>>> measured("COc1ccc(C(=O)Nc2ccc(F)c([C@@]3(C)NC(=N)N(C)S(=O)(=O)[C@]34CCN(S(C)(=O)=O)C4)c2)nc1")
7.46
